assayed_system: HLA-B07:02 (Homo sapiens, UniProt P01889)
run_description: Affinity measurements, competition with radiolabeled peptide (Example 20)
Type: binding
Where no end group is shown, it is not given here.
measured_endpoint: IC50 (nM)
Give just the numeric value; nM need not be written.

Q. Supply recorded IC50 for KPKRDGYMFL here.
A. 115

====

assayed_system: indicated HLA alleles
run_description: Affinity of mutant EGFR neopeptides for indicated HLA alleles
Type: binding, human
measurement_conditions: EGFR_T790M; HLA A02.01
Where no end group is shown, it is not given here.
measured_endpoint: Kd (µM)
Give just the numeric value; µM need not be written.

[
  {
    "sequence_chain": "LIMQLMPFG",
    "Kd [µM]": 3.34
  },
  {
    "sequence_chain": "STVQLIMQL",
    "Kd [µM]": 7.26
  }
]

Next sequence, Kd to be filled in.
Q. Supply recorded Kd for IMQLMPFGC here.
A. 1.21

====

assayed_system: HLA-B08:01 (Homo sapiens, UniProt P01889, A93T/A95T/D138N/E176V/E187T/K202T/Q94N/R180D/S35A/V36M/Y33D/Y91F)
run_description: Stability measurements, pMHC-I dissociation with 125I light chain (Example 20)
Type: binding
measurement_conditions: average of experiments 1 and 2
Recorded Average half-life by entry
Write the figure, then the unit, nothing else.

The following compounds have reported results that may help.
[
  {
    "query_smiles": "CC[C@H](C)[C@H](NC(=O)[C@H](CCCCN)NC(=O)[C@H](CO)NC(=O)[C@H](CCC(=O)O)NC(=O)[C@H](C)NC(=O)[C@H](CCCCN)NC(=O)[C@H](CC(C)C)NC(=O)[C@@H](N)Cc1ccccc1)C(=O)N[C@@H](CCSC)C(=O)N[C@@H](Cc1ccccc1)C(=O)O",
    "Average half-life": "0 min"
  },
  {
    "query_smiles": "CC[C@H](C)[C@H](N)C(=O)N[C@@H](CCSC)C(=O)N[C@@H](CCCCN)C(=O)N1CCC[C@H]1C(=O)N[C@@H](CCCCN)C(=O)N[C@@H](CCCNC(=N)N)C(=O)N[C@@H](CC(=O)O)C(=O)NCC(=O)N[C@@H](Cc1ccc(O)cc1)C(=O)N[C@@H](CCSC)C(=O)O",
    "Average half-life": "24 min"
  }
]

Q. Supply recorded Average half-life for CSCC[C@H](N)C(=O)N[C@@H](Cc1ccccc1)C(=O)N[C@@H](C)C(=O)N[C@H](C(=O)N[C@@H](CC(C)C)C(=O)N[C@@H](CCC(N)=O)C(=O)N[C@@H](CCCNC(=N)N)C(=O)N[C@@H](CO)C(=O)N[C@@H](CO)C(=O)N[C@@H](CC(C)C)C(=O)O)[C@@H](C)O here.
A. 0 min

Q. Supply recorded Average half-life for CC[C@H](C)[C@H](NC(=O)[C@H](CCCCN)NC(=O)[C@H](CO)NC(=O)[C@H](CCC(=O)O)NC(=O)[C@H](C)NC(=O)[C@H](CCCCN)NC(=O)[C@H](CC(C)C)NC(=O)[C@H](Cc1ccccc1)NC(=O)[C@H](CCSC)NC(=O)[C@@H](N)Cc1ccc(O)cc1)C(=O)O here.
A. 24 min

====

assayed_system: HLA-B08:01 (Homo sapiens, UniProt P01889, A93T/A95T/D138N/E176V/E187T/K202T/Q94N/R180D/S35A/V36M/Y33D/Y91F)
run_description: Stability measurements, pMHC-I dissociation with 125I light chain (Example 20)
Format: binding
Source text: To measure the binding stability of peptides to Class I MHC, synthetic genes encoding biotinylated MHC-I heavy and light chains are expressed in E. coli and purified from inclusion bodies using standard methods. […] Stability was defined as the length of time in hours it takes for half of the complexes to dissociate, as measured by scintillation counts. […]
measured_endpoint: Experiment 2 half-life (min)
Give just the numeric value; min need not be written.

[
  {
    "query_smiles": "CSCC[C@H](N)C(=O)N[C@@H](Cc1ccccc1)C(=O)N[C@@H](C)C(=O)N[C@H](C(=O)N[C@@H](CC(C)C)C(=O)N[C@@H](CCC(N)=O)C(=O)N[C@@H](CCCNC(=N)N)C(=O)N[C@@H](CO)C(=O)N[C@@H](CO)C(=O)N[C@@H](CC(C)C)C(=O)O)[C@@H](C)O",
    "Experiment 2 half-life (min)": 0
  },
  {
    "query_smiles": "CC[C@H](C)[C@H](N)C(=O)N[C@@H](CCSC)C(=O)N[C@@H](CCCCN)C(=O)N1CCC[C@H]1C(=O)N[C@@H](CCCCN)C(=O)N[C@@H](CCCNC(=N)N)C(=O)N[C@@H](CC(=O)O)C(=O)NCC(=O)N[C@@H](Cc1ccc(O)cc1)C(=O)N[C@@H](CCSC)C(=O)O",
    "Experiment 2 half-life (min)": 24
  },
  {
    "query_smiles": "CC[C@H](C)[C@H](NC(=O)[C@H](CCCCN)NC(=O)[C@H](CO)NC(=O)[C@H](CCC(=O)O)NC(=O)[C@H](C)NC(=O)[C@H](CCCCN)NC(=O)[C@H](CC(C)C)NC(=O)[C@@H](N)Cc1ccccc1)C(=O)N[C@@H](CCSC)C(=O)N[C@@H](Cc1ccccc1)C(=O)O",
    "Experiment 2 half-life (min)": 0
  }
]

Q. Supply recorded Experiment 2 half-life for CC[C@H](C)[C@H](NC(=O)[C@H](CCCCN)NC(=O)[C@H](CO)NC(=O)[C@H](CCC(=O)O)NC(=O)[C@H](C)NC(=O)[C@H](CCCCN)NC(=O)[C@H](CC(C)C)NC(=O)[C@H](Cc1ccccc1)NC(=O)[C@H](CCSC)NC(=O)[C@@H](N)Cc1ccc(O)cc1)C(=O)O here.
A. 30

====

measurement_conditions: with polyICLC, […] SS in D5W, 4% DMSO
Where no end group is shown, it is not given here.
measured_endpoint: Solubility in Poly ICLC + […] SS in D5W w/ 4% DMSO

[
  {
    "sequence_chain": "YMFLKAESKIMFATLQRSS [Peptide 11c]",
    "result": "No"
  },
  {
    "sequence_chain": "GPPARVPAVPFDLHFCRSSIMKPKRD [Peptide 8]",
    "result": "Yes"
  },
  {
    "sequence_chain": "FLKAESKIMFATLQRSSLWCL [Peptide 11]",
    "result": "No"
  },
  {
    "sequence_chain": "KPKRDGYMFLKAESKIMFAT [Peptide 10b]",
    "result": "No"
  },
  {
    "sequence_chain": "LHFCRSSIMKPKRDGYMFLKAESKI [Peptide 9]",
    "result": "Yes"
  },
  {
    "sequence_chain": "KPKRDGYMFLKAESKIMFATLQR [Peptide 10]",
    "result": "No"
  }
]

Next sequence, Solubility in Poly ICLC + […] SS in D5W w/ 4% DMSO to be filled in.
Q. Supply recorded Solubility in Poly ICLC + […] SS in D5W w/ 4% DMSO for ESKIMFATLQRSSLWC [Peptide L11g] here.
A. No

====

assayed_system: indicated HLA alleles (Homo sapiens, UniProt P04439)
run_description: Affinity of GATA3 neoORF neoepitopes for the indicated HLA alleles (Example 9, Table 4)
Assay type: binding
Where no end group is shown, it is not given here.
measured_endpoint: Kd (µM)
Give just the numeric value; µM need not be written.

Q. Supply recorded Kd for VLWTTPPLQH here.
A. 0.016
